B1: Cytochrome c-553, B8C6L5 (parent)
chain: MKLTIVAALIASASAWTTPKSFESVKAAVAGAAVTAGVAVSPAFAGDVGAGEQIFNANCAACHAGGQNVIMPDKTLEKEALEQYLAGGRNEKAVMTQVTNGKNAMPAFGGRLSDEDIANVASYVIATSEAGWD

# Variants of: B1
# condition.details: Thalassiosira pseudonana; pH 7.4; Thermal; UV/Vis spectroscopy; HEPES; transition: 2; reversible: > 90% (Yes); whole UniProt chain shown
reported.metric: Tm (°C)
Answer in °C, number only, no unit symbol.

Below: 3 variants and their reported Tm.
{"item.sequence": "MKLTIVAALIASASAWTTPKSFESVKAAVAGAAVTAGVAVSPAFAGDVGAGEQIFNANCAACHAGGQNVIMPDKTLEKEALEQYLSGGRNEKAVMTQVTNGKNAMPAFGGRLSDEDIANVASYVIATSEAGWD [A86S]", "Tm [°C]": 38.9}
{"item.sequence": "MKLTIVAALIASASAWTTPKSFESVKAAVAGAAVTAGVAVSPAFAGDVGAGEQIFNANCAACHAGGQNVIMPDKTLEKEALEQYLAGGRNEKSVMTQVTNGKNAMPAFGGRLSDEDIANVASYVISTSEAGWD [A93S A126S]", "Tm [°C]": 32.2}
{"item.sequence": "MKLTIVAALIASASAWTTPKSFESVKAAVAGAAVTAGVAVSPAFAGDVGAGEQIFNANCAACHAGGQNVIMPDKTLEKEALEQYLAGGRNEKAVMTQVTNGKNAMPAFGGRLSDEDIANVASYVISTSEAGWD [A126S]", "Tm [°C]": 35.1}

Now for the variant whose Tm we want.
Query string: Look up Tm of MKLTIVAALIASASAWTTPKSFESVKAAVAGAAVTAGVAVSPAFAGDVGAGEQIFNANCAACHAGGQNVIMPDKTLEKEALEQYLAGGRNEKSVMTQVTNGKNAMPAFGGRLSDEDIANVASYVIATSEAGWD [A93S] and report it.
Result string: 35.4

Reference for the values: FireProtDB (doi:10.1007/s00775-020-01777-0)
